Experiment: Pharmacokinetics of the compounds in rats
Assay type: in vivo, rat
Settings: male, SD, rat, plasma, iv; read-out: Initial Concentration C0
Where a name gives a salt, the structure may show the parent alone.
# C0 annotations
Parameter: C0 (nM)

Compound	Unit descriptor	Measured number
Fc1ccc([C@]2(CCNCc3scc4c3CCC4)CCO[C@]3(CCOC3)C2)nc1 [(+)-5]	nM	1810
Fc1ccc([C@]2(CCNCc3cccc(Cl)c3)CCO[C@]3(CCOC3)C2)nc1 [(+)-16]	nM	979
COc1ccsc1CNCC[C@@]1(c2ccccn2)CCOC2(CCCC2)C1 [compound 1, Oliceridine, reference compound]	nM	1900
Fc1ccc([C@]2(CCNCc3cccc(F)c3)CCO[C@]3(CCOC3)C2)nc1 [Hydrochloride Salt of (+)-23]	nM	1550

====

Property: CLint scaled; scope: individual compounds
Assay: Metabolic stability in liver microsomes
Format: in vitro ADME
Conditions: pH 7.4; human liver microsomes 0.5 mg protein/mL; 45 mg microsome protein/g liver, 20 g liver/kg; read-out: Intrinsic Clearance CLint(liver) in Human Liver
Description: Test 3: Metabolic Stability in Liver Microsomes 3.1 Experimental Purpose: To test the metabolic stability of the compounds of the present disclosure in human liver microsomes a. All samples as well as testosterone, diclofenac and propafenone acting as reference substances were dissolved in DMSO to a storage concentration of 10 mM. b. […] T1/2 and Clint(mic) were calculated by the following formula: […]
Where a name gives a salt, the structure may show the parent alone.

Compound	CLint scaled
Fc1ccnc([C@]2(CCNCc3scc4c3CCC4)CCO[C@]3(CCOC3)C2)c1 [(+)-6]	86 mL/min/kg
Fc1cc(Cl)cc(CNCC[C@@]2(c3ccccn3)CCO[C@]3(CCOC3)C2)c1 [(+)-18]	84.9 mL/min/kg
COc1ccsc1CNCC[C@@]1(c2ccc(F)cc2)CCO[C@]2(CCOC2)C1 [(+)-3]	39 mL/min/kg
Fc1ccc([C@]2(CCNCc3cccc(F)c3)CCO[C@]3(CCOC3)C2)nc1 [Hydrochloride Salt of (+)-23]	15.6 mL/min/kg
Cc1cccc(CNCC[C@@]2(c3ccc(F)cn3)CCO[C@]3(CCOC3)C2)c1 [Hydrochloride Salt of (+)-22]	13.5 mL/min/kg
Cc1cccc(CNCC[C@@]2(c3ccccn3)CCO[C@]3(CCOC3)C2)c1 [(+)-9]	8.8 mL/min/kg
c1ccc([C@]2(CCNCc3cccc4c3CCCC4)CCO[C@]3(CCOC3)C2)nc1 [(+)-11]	72.5 mL/min/kg
c1ccc([C@]2(CCNCc3scc4c3CCC4)CCO[C@]3(CCOC3)C2)nc1 [(+)-2]	49 mL/min/kg

====

Molecular target: UniProt:P35372
Assay: MOR β-arrestin-2 agonist activity test
Format: cell-based
Structures can show the parent of a compound that is named as a salt.

Molecule	Unit descriptor	Operator symbol	EC50
c1ccc([C@]2(CCNCc3cc4c(s3)CCC4)CCOC3(CCCC3)C2)nc1 [compound 2, reference compound]	nM	=	500
Cc1cccc(CNCC[C@@]2(c3ccc(F)cn3)CCO[C@]3(CCOC3)C2)c1 [Hydrochloride Salt of (+)-22]	nM	>	30000

====

Each entry below lists one item and its recorded EC50 value.
Target: human μ-subtype opioid receptor (hMOR) (Homo sapiens (Human), UniProt P35372)
Assay: MOR cAMP agonist activity test
Type: cell-based
Counter-ions that a name gives are not always drawn.

Molecule	Assayed system	EC50 / nM
Fc1ccc([C@]2(CCNCc3scc4c3COC4)CCO[C@]3(CCOC3)C2)cc1 [Hydrochloride Salt of (+)-12]	human μ-subtype opioid receptor (hMOR) (Homo sapiens (Human), UniProt P35372)	6.8
c1ccc([C@]2(CCNCc3cccc4c3CCC4)CCO[C@]3(CCOC3)C2)nc1 [(+)-19]	human μ-subtype opioid receptor (hMOR) (Homo sapiens (Human), UniProt P35372)	4.5
COc1ccsc1CNCC[C@@]1(c2ccc(F)cc2)CCO[C@]2(CCOC2)C1 [(+)-3]	human μ-subtype opioid receptor (hMOR) (Homo sapiens (Human), UniProt P35372)	3
Clc1ccc(CNCC[C@@]2(c3ccccn3)CCO[C@]3(CCOC3)C2)cc1Cl [(+)-20]	human μ-subtype opioid receptor (hMOR) (Homo sapiens (Human), UniProt P35372)	3.1
Fc1ccc([C@]2(CCNCc3cccc(Cl)c3)CCO[C@]3(CCOC3)C2)nc1 [(+)-16]	human μ-subtype opioid receptor (hMOR) (Homo sapiens (Human), UniProt P35372)	0.5
Fc1ccc([C@]2(CCNCc3cccc(F)c3)CCO[C@]3(CCOC3)C2)nc1 [Hydrochloride Salt of (+)-23]	human μ-subtype opioid receptor (hMOR) (Homo sapiens (Human), UniProt P35372)	1
c1ccc([C@]2(CCNCc3cccc4c3CCCC4)CCO[C@]3(CCOC3)C2)nc1 [(+)-11]	human μ-subtype opioid receptor (hMOR) (Homo sapiens (Human), UniProt P35372)	1.4
Fc1ccc([C@]2(CCN[C@H]3CCCc4ccccc43)CCO[C@]3(CCOC3)C2)nc1 [(+)-26]	human μ-subtype opioid receptor (hMOR) (Homo sapiens (Human), UniProt P35372)	0.2
Fc1ccc([C@]2(CCNCc3ccc(Cl)cc3)CCO[C@]3(CCOC3)C2)nc1 [(+)-17]	human μ-subtype opioid receptor (hMOR) (Homo sapiens (Human), UniProt P35372)	8.9
Clc1cccc(CNCC[C@@]2(c3ccccn3)CCO[C@]3(CCOC3)C2)c1 [(+)-8]	human μ-subtype opioid receptor (hMOR) (Homo sapiens (Human), UniProt P35372)	1.8
Fc1cc(Cl)cc(CNCC[C@@]2(c3ccccn3)CCO[C@]3(CCOC3)C2)c1 [(+)-18]	human μ-subtype opioid receptor (hMOR) (Homo sapiens (Human), UniProt P35372)	4.2
c1ccc([C@]2(CCNCc3scc4c3COC4)CCO[C@]3(CCOC3)C2)nc1 [(+)-7]	human μ-subtype opioid receptor (hMOR) (Homo sapiens (Human), UniProt P35372)	14.1
Clc1cc(Cl)cc(CNCC[C@@]2(c3ccccn3)CCO[C@]3(CCOC3)C2)c1 [(+)-21]	human μ-subtype opioid receptor (hMOR) (Homo sapiens (Human), UniProt P35372)	2.2
Fc1ccc([C@]2(CCNCc3scc4c3CCC4)CCO[C@]3(CCOC3)C2)cc1 [Formate Salt of (+)-4]	human μ-subtype opioid receptor (hMOR) (Homo sapiens (Human), UniProt P35372)	0.07
c1ccc([C@]2(CCN[C@H]3CCCc4ccccc43)CCO[C@]3(CCOC3)C2)nc1 [(+)-27]	human μ-subtype opioid receptor (hMOR) (Homo sapiens (Human), UniProt P35372)	0.8
Fc1ccc([C@]2(CCNCc3cc(Cl)cc(Cl)c3)CCO[C@]3(CCOC3)C2)nc1 [Hydrochloride Salt of (+)-24]	human μ-subtype opioid receptor (hMOR) (Homo sapiens (Human), UniProt P35372)	0.2
Cc1cccc(CNCC[C@@]2(c3ccccn3)CCO[C@]3(CCOC3)C2)c1 [(+)-9]	human μ-subtype opioid receptor (hMOR) (Homo sapiens (Human), UniProt P35372)	6.1
Fc1ccnc([C@]2(CCNCc3scc4c3CCC4)CCO[C@]3(CCOC3)C2)c1 [(+)-6]	human μ-subtype opioid receptor (hMOR) (Homo sapiens (Human), UniProt P35372)	1.8
Cc1ccsc1CNCC[C@@]1(c2ccc(F)cc2)CCO[C@]2(CCOC2)C1 [(+)-13]	human μ-subtype opioid receptor (hMOR) (Homo sapiens (Human), UniProt P35372)	4.1
Cc1cc(C)cc(CNCC[C@@]2(c3ccccn3)CCO[C@]3(CCOC3)C2)c1 [(+)-10]	human μ-subtype opioid receptor (hMOR) (Homo sapiens (Human), UniProt P35372)	11.6
